Origin of measurements: paper PMC7615656

Biological target: recombinant rat α5β3γ2F77I receptors (Rattus norvegicus, UniProt P18508+P19969, F115I)
Sequence (P19969 32-464 limits assumed): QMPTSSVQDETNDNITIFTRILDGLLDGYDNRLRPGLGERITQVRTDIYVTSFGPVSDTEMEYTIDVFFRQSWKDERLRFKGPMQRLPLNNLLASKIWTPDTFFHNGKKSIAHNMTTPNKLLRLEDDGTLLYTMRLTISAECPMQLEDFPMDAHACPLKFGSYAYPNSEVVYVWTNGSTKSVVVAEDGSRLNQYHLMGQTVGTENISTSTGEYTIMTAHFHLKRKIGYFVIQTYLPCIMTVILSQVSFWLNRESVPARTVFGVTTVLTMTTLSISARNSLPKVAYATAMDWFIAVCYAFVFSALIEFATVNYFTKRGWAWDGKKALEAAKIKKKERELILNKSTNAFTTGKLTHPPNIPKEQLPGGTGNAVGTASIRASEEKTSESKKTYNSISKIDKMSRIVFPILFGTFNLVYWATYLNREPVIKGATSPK
Sequence (P63079 26-473 partner): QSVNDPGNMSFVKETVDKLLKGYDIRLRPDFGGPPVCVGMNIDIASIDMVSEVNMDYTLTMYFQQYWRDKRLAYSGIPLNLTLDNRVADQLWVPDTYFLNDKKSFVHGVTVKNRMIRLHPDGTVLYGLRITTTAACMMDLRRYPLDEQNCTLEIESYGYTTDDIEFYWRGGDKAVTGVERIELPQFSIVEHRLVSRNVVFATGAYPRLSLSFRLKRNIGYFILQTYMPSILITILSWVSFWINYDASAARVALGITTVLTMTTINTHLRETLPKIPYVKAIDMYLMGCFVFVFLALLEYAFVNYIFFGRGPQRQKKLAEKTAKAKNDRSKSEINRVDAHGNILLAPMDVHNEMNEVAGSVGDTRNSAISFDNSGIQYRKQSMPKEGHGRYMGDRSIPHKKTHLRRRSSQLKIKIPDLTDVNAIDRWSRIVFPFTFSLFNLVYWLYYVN
Sequence (P18508 39-466 F115I): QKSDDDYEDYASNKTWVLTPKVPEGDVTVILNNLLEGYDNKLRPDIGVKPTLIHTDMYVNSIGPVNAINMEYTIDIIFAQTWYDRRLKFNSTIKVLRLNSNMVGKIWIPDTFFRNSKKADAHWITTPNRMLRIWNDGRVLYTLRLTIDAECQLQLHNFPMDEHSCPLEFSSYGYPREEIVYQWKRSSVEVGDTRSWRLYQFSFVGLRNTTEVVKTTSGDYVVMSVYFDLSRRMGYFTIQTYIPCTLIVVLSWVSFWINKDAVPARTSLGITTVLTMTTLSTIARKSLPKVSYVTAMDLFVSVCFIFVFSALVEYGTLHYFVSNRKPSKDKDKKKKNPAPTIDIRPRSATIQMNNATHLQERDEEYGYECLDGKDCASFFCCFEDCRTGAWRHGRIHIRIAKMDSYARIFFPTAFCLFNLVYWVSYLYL
Test: Two-electrode voltage clamp of GABA-induced chloride currents in Xenopus oocytes
Assay type: cell-based
Settings: 1 μM; α5β3γ2F77I; ns = not significant
READOUT NAME: efficacy (% GABA EC3)

// worked examples, efficacy (% GABA EC3) included
>  <COMPOUND>
CCc1c(C(=O)OC)ncc2[nH]c3cc(OC)c(OC)cc3c12 [DMCM]

>  <TARGET SYSTEM>
recombinant rat α5β3γ2F77I receptors (Rattus norvegicus, UniProt P18508+P19969, F115I)

>  <efficacy (% GABA EC3)>
ns

$$$$
>  <COMPOUND>
CC(C)(C)OC(=O)c1ncn2c1[C@@H]1CCCN1C(=O)c1c(Br)cccc1-2 [Bretazenil]

>  <TARGET SYSTEM>
recombinant rat α5β3γ2F77I receptors (Rattus norvegicus, UniProt P18508+P19969, F115I)

>  <efficacy (% GABA EC3)>
193 ± 8 % GABA EC3

$$$$
>  <COMPOUND>
Cc1nnc2ccc(-c3cccc(C(F)(F)F)c3)nn12 [CL 218872]

>  <TARGET SYSTEM>
recombinant rat α5β3γ2F77I receptors (Rattus norvegicus, UniProt P18508+P19969, F115I)

>  <efficacy (% GABA EC3)>
ns

$$$$
>  <COMPOUND>
CCOC(=O)c1ncn2c1CN(C)C(=O)c1cc(F)ccc1-2 [Ro15–1788]

>  <TARGET SYSTEM>
recombinant rat α5β3γ2F77I receptors (Rattus norvegicus, UniProt P18508+P19969, F115I)

>  <efficacy (% GABA EC3)>
ns

$$$$
>  <COMPOUND>
CN1C(=O)CN=C(c2ccccc2)c2cc(Cl)ccc21 [Diazepam]

>  <TARGET SYSTEM>
recombinant rat α5β3γ2F77I receptors (Rattus norvegicus, UniProt P18508+P19969, F115I)

>  <efficacy (% GABA EC3)>
170 ± 4 % GABA EC3

$$$$

Item under review: CN1CCN(C(=O)OC2c3nccnc3C(=O)N2c2ccc(Cl)cn2)CC1 (centres unmarked) [Zopiclone] . Reported efficacy (% GABA EC3)?
114 ± 2 % GABA EC3

Item under review: Cc1ccc(-c2nc3ccc(C)cn3c2CC(=O)N(C)C)cc1 [Zolpidem] . Reported efficacy (% GABA EC3)?
ns

Item under review: CCOC(=O)c1ncn2c1C1CCCN1C(=O)c1cc(OC)ccc1-2 [L-655,708] . Reported efficacy (% GABA EC3)?
ns
